Tested on: TK-10 renal
Assay name: NCI tumour cell line growth inhibition, 48 h
Consider the following compounds; for each one, report its log10 of TGI.
Friendly reminder: values = log10 of TGI, unit µM.

Recorded log10 of TGI for COc1ccc(Oc2cccc(/C=C3/C(=O)Nc4ccccc43)c2)cc1 with TK-10 renal, please?
1.48

Recorded log10 of TGI for CCN(CC)CCOCC[C@H]1CC[C@H]2[C@@H]3[C@H](C)Cc4cc(OS(N)(=O)=O)ccc4[C@H]3CC[C@]12C with TK-10 renal, please?
0.52

Recorded log10 of TGI for CN(C)c1ccc(/C=c2/c3ccccc3n3c2c2ccccc2[n+]3C)cc1 with TK-10 renal, please?
0.53

Recorded log10 of TGI for CCCCCCCC1C(C)c2c([nH]c3ccccc23)C2C(=O)N(c3ccc(OC)cc3)C(=O)C21 (stereo not given) with TK-10 renal, please?
0.73

Recorded log10 of TGI for NCCNc1c2c(c(NCCN)c3c(CO)c[nH]c13)C(=O)c1ccccc1C2=O with TK-10 renal, please?
1.88

---

Tested on: A549 NSCLC
Assay name: NCI tumour cell line growth inhibition, 48 h
Measurement type: TGI

Recorded TGI for Oc1ccc(-c2csc(NNC3=NC/C(=C/c4ccc5c(c4)OCO5)S3)n2)cc1O with A549 NSCLC, please?
> 100 µM

Recorded TGI for C/C(CN1C(=O)c2ccccc2C1=O)=N\NS(=O)(=O)c1ccc(C)cc1 with A549 NSCLC, please?
> 100 µM

Recorded TGI for O=C1c2ccccc2-c2c1c1ccccc1c(=O)n2CCCCNCCCn1c2c(c3ccccc3c1=O)C(=O)c1ccccc1-2 with A549 NSCLC, please?
2.9 µM

Recorded TGI for Cc1c(NC(=S)NN)c(=O)n(-c2ccccc2)n1C with A549 NSCLC, please?
> 100 µM

Recorded TGI for CCNC(C)Cc1ccccc1 (stereo unspecified) with A549 NSCLC, please?
> 100 µM

Recorded TGI for CC(C)/C=C1\CCC(CN2CCCC2)C1=O (stereo unspecified) with A549 NSCLC, please?
20.1 µM

---

System: A498 renal
Assay name: NCI tumour cell line growth inhibition, 48 h; in the data active = GI50 below about 0.43 µM; inactive = the rest
Allowed answers: Yes for active, No for inactive

GET /call?item= C/C(=N\NC(=O)c1sc(=S)n(C)c1N)c1cc2ccccc2o1 returns the recorded outcome of this test.
No

GET /call?item= COc1ccc(C2CC(c3cc(OC)c(OC)c(OC)c3)=NO2)cc1OCCCCOc1cc2c(cc1OC)C(=O)N1CCC[C@H]1C=N2 (some centres not stated) returns the recorded outcome of this test.
No

GET /call?item= CCCCC[C@H](O)/C=C/[C@@H]1[C@@H](C/C=C\CCCC(=O)O)[C@@H](O)C[C@H]1O returns the recorded outcome of this test.
No

GET /call?item= COc1cc(NS(C)(=O)=O)ccc1Nc1c2ccc([N+](=O)[O-])cc2nc2c(C)cccc12 returns the recorded outcome of this test.
Yes

GET /call?item= CCN(CC)CCOCC[C@H]1CC[C@H]2[C@@H]3[C@H](C)Cc4cc(OS(N)(=O)=O)ccc4[C@H]3CC[C@]12C returns the recorded outcome of this test.
No

GET /call?item= CCSCC1CC(O)(c2ccccc2)C(c2ccccc2)C(c2ccc(Cl)cc2)O1 (configuration not stated) returns the recorded outcome of this test.
No

GET /call?item= O=C(Nc1ccc(Cl)c(Cl)c1)c1cccc(NC2=C(Cl)C(=O)N(Cc3ccccc3)C2=O)c1 returns the recorded outcome of this test.
No

GET /call?item= Nc1ccc2c(c1)C(=O)C(=O)c1c-2nc2ccccn12 returns the recorded outcome of this test.
No

GET /call?item= C=CC[n+]1c(/C=C/C=C2\N(C)c3ccccc3C2(C)C)sc2ccc(OC)cc21 returns the recorded outcome of this test.
Yes

GET /call?item= CCCCON(OC(=O)c1ccccc1)C(=O)c1ccccc1 returns the recorded outcome of this test.
No

GET /call?item= O=C1c2ccccc2-c2c1c1ccccc1c(=O)n2CCCCNCCCn1c2c(c3ccccc3c1=O)C(=O)c1ccccc1-2 returns the recorded outcome of this test.
No

GET /call?item= COc1cc2c3c(n(CCCN)c(=O)c2cc1OC)-c1ccccc1C3=O returns the recorded outcome of this test.
No
